Biological target: Estrogen receptor (Homo sapiens)
Assay: Displacement of fluorescein-labeled estradiol from human recombinant ERalpha at 1 uM by fluorescence polarization assay
// classify: if (Activity < 60%) YES else NO

input-smiles: CCCC[C@@H]1C[C@H]1[C@@H](NC(=O)c1cccnc1)c1ccc(-c2ccccc2)cc1
system-name: Estrogen receptor (Homo sapiens)
category-label: NO

-- ask Is it true that Activity reported for CCCC[C@@H]1C[C@H]1[C@@H](NC(=O)c1ccccc1)c1ccc(-c2ccccc2)cc1 is less than 60%?
-- reply NO

-- ask Is it true that Activity reported for CCC/C=C(\CCC)[C@@H](NP(=O)(c1ccccc1)c1ccccc1)c1ccc(C(F)(F)F)cc1 is less than 60%?
-- reply NO

-- ask Is it true that Activity reported for CCC/C=C(\CCC)[C@@H](NS(=O)(=O)c1cccs1)c1ccc(C(=O)OC)cc1 is less than 60%?
-- reply YES

----------
Target: Estrogen receptor (Homo sapiens) (UniProt P03372)
Sequence (P03372 whole entry): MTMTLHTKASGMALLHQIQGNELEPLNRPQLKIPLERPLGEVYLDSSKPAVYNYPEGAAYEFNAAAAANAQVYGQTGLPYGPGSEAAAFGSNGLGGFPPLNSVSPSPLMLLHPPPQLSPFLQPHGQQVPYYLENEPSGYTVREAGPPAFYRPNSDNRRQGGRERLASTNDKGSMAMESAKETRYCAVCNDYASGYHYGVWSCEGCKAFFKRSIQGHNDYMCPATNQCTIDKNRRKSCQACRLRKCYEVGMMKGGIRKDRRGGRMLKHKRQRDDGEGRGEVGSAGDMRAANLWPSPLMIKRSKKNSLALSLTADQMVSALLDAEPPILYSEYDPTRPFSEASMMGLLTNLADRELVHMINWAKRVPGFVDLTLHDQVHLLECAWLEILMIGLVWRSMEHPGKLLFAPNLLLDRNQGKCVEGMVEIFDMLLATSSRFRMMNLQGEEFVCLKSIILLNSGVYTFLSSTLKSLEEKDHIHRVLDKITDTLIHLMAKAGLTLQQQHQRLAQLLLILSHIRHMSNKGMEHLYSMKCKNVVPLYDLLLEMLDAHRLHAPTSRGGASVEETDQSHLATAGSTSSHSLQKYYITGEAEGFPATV
Assay: Displacement of fluorescein-labeled estradiol from human recombinant ERalpha at 5 uM by fluorescence polarization assay
// classify: if (Activity < 70%) T else F

input-smiles: CCC/C=C(\CCC)[C@@H](NC(=O)Cc1ccccc1)c1ccc(C(=O)OC)cc1
category-label: T

input-smiles: CCCC[C@@H]1C[C@@]1(C)[C@@H](NS(=O)(=O)c1cccc2cccnc12)c1ccc(-c2ccccc2)cc1
category-label: T

input-smiles: C=C(CCC)[C@@H](NC(=O)c1ccccc1Cl)c1ccccc1
category-label: F

input-smiles: CCC/C=C(\CCC)[C@@H](NS(=O)(=O)c1ccccc1Cl)c1ccc(C(=O)OC)cc1
category-label: F

input-smiles: C=C(CCCC)[C@@H](NC(=O)C(C)(C)C)c1ccccc1
category-label: T

-- ask Is it true that Activity reported for CCC/C=C(\CCC)[C@@H](NC(=O)c1ccco1)c1ccc(C(=O)OC)cc1 is less than 70%?
-- reply F

-- ask Is it true that Activity reported for CCC/C=C(\CCC)[C@@H](NC(=O)c1ccccc1)c1ccc(C(=O)OC)cc1 is less than 70%?
-- reply F

-- ask Is it true that Activity reported for CCCC[C@@H]1C[C@H]1[C@@H](NC(=O)c1ccc(C(F)(F)F)cc1)c1ccc(C(=O)OC)cc1 is less than 70%?
-- reply T

-- ask Is it true that Activity reported for CCC/C=C(\CCC)[C@@H](NC(=O)c1cccs1)c1ccc(C(F)(F)F)cc1 is less than 70%?
-- reply F

-- ask Is it true that Activity reported for CCC/C=C(\CCC)[C@@H](NC(=O)CCc1ccccc1)c1ccc(C(F)(F)F)cc1 is less than 70%?
-- reply T

-- ask Is it true that Activity reported for CCCC[C@@H]1C[C@H]1[C@@H](NC(=O)c1ccco1)c1ccc(-c2ccccc2)cc1 is less than 70%?
-- reply T

-- ask Is it true that Activity reported for CCC/C=C(\CCC)[C@@H](NS(=O)(=O)c1ccc(C(Cl)(Cl)Cl)cc1)c1ccccc1 is less than 70%?
-- reply F

-- ask Is it true that Activity reported for CCC[C@@H]1C[C@@]1(CCC)[C@@H](NC(=O)Cc1ccccc1)c1ccc(-c2ccccc2)cc1 is less than 70%?
-- reply T

-- ask Is it true that Activity reported for CCC/C=C(\CCC)[C@@H](NS(=O)(=O)c1ccc(C(F)(F)F)cc1)c1ccc(C(=O)OC)cc1 is less than 70%?
-- reply F

----------
# Activity per record follows
Molecular target: Estrogen receptor beta (Homo sapiens, UniProt Q92731)
Sequence (Q92731 whole entry): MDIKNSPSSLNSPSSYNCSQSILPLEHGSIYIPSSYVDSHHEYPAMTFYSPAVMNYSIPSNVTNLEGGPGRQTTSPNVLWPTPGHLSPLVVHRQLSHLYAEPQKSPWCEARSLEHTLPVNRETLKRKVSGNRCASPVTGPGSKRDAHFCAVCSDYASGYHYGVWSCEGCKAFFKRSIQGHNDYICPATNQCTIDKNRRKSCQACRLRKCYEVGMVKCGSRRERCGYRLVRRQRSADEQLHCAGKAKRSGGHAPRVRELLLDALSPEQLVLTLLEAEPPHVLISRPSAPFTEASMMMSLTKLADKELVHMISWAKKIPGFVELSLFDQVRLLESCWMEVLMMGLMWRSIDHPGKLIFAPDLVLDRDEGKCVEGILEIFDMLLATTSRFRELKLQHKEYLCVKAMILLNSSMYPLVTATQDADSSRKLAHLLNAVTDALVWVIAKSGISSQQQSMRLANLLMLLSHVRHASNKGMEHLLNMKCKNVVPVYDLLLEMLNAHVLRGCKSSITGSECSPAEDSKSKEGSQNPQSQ
Test: Displacement of fluorescein-labeled estradiol from human recombinant ERbeta at 0.2 uM by fluorescence polarization assay
Use % as the unit, but write only the number.

compound: CCCC[C@@H]1C[C@H]1[C@@H](NC(=O)c1ccccc1)c1ccc(C(=O)OC)cc1
unit-of-measurement: %
Activity: -3
--
compound: C=C(CCCC)[C@@H](NC(=O)C(C)(C)C)c1ccccc1
unit-of-measurement: %
Activity: -10
--
compound: CCCC[C@@H]1C[C@H]1C(NC(=O)c1cccs1)c1ccc(C(F)(F)F)cc1 (single isomer, unassigned)
unit-of-measurement: %
Activity: 8
--
compound: CCC/C=C(\CCC)[C@@H](NS(=O)(=O)c1ccc(C(F)(F)F)cc1)c1ccc(-c2ccccc2)cc1
unit-of-measurement: %
Activity: 7

-- ask Using Estrogen receptor beta (Homo sapiens, UniProt Q92731) as the test system, report measured Activity of CCC/C=C(\CCC)[C@@H](NC(=O)c1cccs1)c1ccc(C(F)(F)F)cc1 .
-- reply 9

-- ask Using Estrogen receptor beta (Homo sapiens, UniProt Q92731) as the test system, report measured Activity of C=C(CCCC)[C@@H](NC(=O)c1ccc(C(=O)OC)cc1)c1ccccc1 .
-- reply -9

----------
Biological target: UniProt Q92731
Assay: Displacement of fluorescein-labeled estradiol from human recombinant ERbeta at 5 uM by fluorescence polarization assay
# Activity per record follows
Use % as the unit, but write only the number.

Check out these entries, answers already filled in.
input-smiles: CCCCCC/C=C(\C)[C@@H](NC(=O)c1ccc(C(F)(F)F)cc1)c1ccc(-c2ccccc2)cc1
unit-of-measurement: %
Activity: -3

input-smiles: CCC/C=C(\CCC)[C@@H](NS(=O)(=O)c1ccccc1Cl)c1ccc(C(=O)OC)cc1
unit-of-measurement: %
Activity: 40

input-smiles: CCC/C=C(\CCC)[C@@H](NC(=O)c1cccs1)c1ccc(C(F)(F)F)cc1
unit-of-measurement: %
Activity: 19

-- ask Return reported Activity. Input molecule: C=C(CCCC)[C@@H](NC(=O)C(C)(C)C)c1ccccc1
-- reply -4

-- ask Return reported Activity. Input molecule: CCC/C=C(\CCC)[C@@H](NC(=O)c1cccs1)c1ccc(C(=O)OC)cc1
-- reply 31

----------
Molecular target: Estrogen receptor beta (Homo sapiens)
Assay: Displacement of fluorescein-labeled estradiol from human recombinant ERbeta at 1 uM by fluorescence polarization assay
quantity-kind: Activity (%)
Use % as the unit, but write only the number.

Check out these entries, answers already filled in.
compound: C=C(CCCC)[C@@H](NC(=O)C(C)(C)C)c1ccccc1
system-name: Estrogen receptor beta (Homo sapiens)
Activity / %: -12
--
compound: CCC/C=C(\CCC)[C@@H](NC(=O)Cc1ccccc1)c1ccc(C(=O)OC)cc1
system-name: Estrogen receptor beta (Homo sapiens)
Activity / %: -2
--
compound: C=C(CCC)[C@@H](NC(=O)c1ccccc1Cl)c1ccccc1
system-name: Estrogen receptor beta (Homo sapiens)
Activity / %: 7
--
compound: CCC/C=C(\CCC)[C@@H](NS(=O)(=O)c1cccc2cccnc12)c1ccc(C(=O)OC)cc1
system-name: Estrogen receptor beta (Homo sapiens)
Activity / %: 24
--
compound: CCCC[C@@H]1C[C@H]1C(NC(=O)c1cccs1)c1ccc(C(F)(F)F)cc1 (single isomer, unassigned)
system-name: Estrogen receptor beta (Homo sapiens)
Activity / %: 14

-- ask Return reported Activity. Input compound: CCCCCC/C=C(\C)[C@@H](NC(=O)c1cccnc1)c1ccc(-c2ccccc2)cc1
-- reply -4

-- ask Return reported Activity. Input compound: CCC/C=C(\CCC)[C@@H](NC(=O)c1ccc(C(F)(F)F)cc1)c1ccccc1
-- reply 11

-- ask Return reported Activity. Input compound: C=C(CCCC)[C@@H](NC(=O)c1ccco1)c1ccccc1
-- reply -2

-- ask Return reported Activity. Input compound: CCC/C=C(\CCC)[C@@H](NC(=O)c1cccs1)c1ccc(C(F)(F)F)cc1
-- reply 12

-- ask Return reported Activity. Input compound: CCC/C=C(\CCC)[C@@H](NS(=O)(=O)c1cccc2cccnc12)c1ccc(-c2ccccc2)cc1
-- reply 11

-- ask Return reported Activity. Input compound: CCCC[C@@H]1C[C@H]1[C@@H](NC(=O)C(C)(C)C)c1ccc(C(F)(F)F)cc1
-- reply -4

-- ask Return reported Activity. Input compound: CCCC[C@@H]1C[C@H]1[C@@H](NC(=O)c1cccs1)c1ccc(-c2ccccc2)cc1
-- reply 8

-- ask Return reported Activity. Input compound: C=C(CCCC)[C@@H](NC(=O)c1ccc(C(=O)OC)cc1)c1ccccc1
-- reply -7

-- ask Return reported Activity. Input compound: CCC[C@@H]1C[C@@]1(CCC)[C@@H](NC(=O)c1ccco1)c1ccc(C(Cl)(Cl)Cl)cc1
-- reply 5

-- ask Return reported Activity. Input compound: CCC/C=C(\CCC)[C@@H](NS(=O)(=O)c1ccc(C(F)(F)F)cc1)c1ccc(-c2ccccc2)cc1
-- reply 8

----------
Target: Estrogen receptor (Homo sapiens)
Assay: Displacement of fluorescein-labeled estradiol from human recombinant ERalpha at 0.2 uM by fluorescence polarization assay
Classify by measured Activity: rule met if it is equal to or exceeds 50%, rule not met if it is smaller.

molecule: CCC/C=C(\CCC)[C@@H](NS(=O)(=O)c1cccc2cccnc12)c1ccc(C(=O)OC)cc1
category-label: rule met
//
molecule: CCCC[C@@H]1C[C@H]1[C@@H](NC(=O)C(C)(C)C)c1ccc(C(F)(F)F)cc1
category-label: rule not met
//
molecule: CCC/C=C(\CCC)[C@@H](NC(=O)c1ccccc1)c1ccc(C(=O)OC)cc1
category-label: rule not met

-- ask Is Activity at least 50%? Consider CCC/C=C(\CCC)[C@@H](NC(=O)Cc1ccccc1)c1ccc(C(=O)OC)cc1
-- reply rule not met

-- ask Is Activity at least 50%? Consider CCC/C=C(\CCC)[C@@H](NP(=O)(c1ccccc1)c1ccccc1)c1ccccc1
-- reply rule not met

-- ask Is Activity at least 50%? Consider C=C(CCCC)[C@@H](NC(=O)c1ccccc1)c1ccccc1
-- reply rule met

-- ask Is Activity at least 50%? Consider CCC[C@@H]1C[C@@]1(CCC)[C@@H](NC(=O)Cc1ccccc1)c1ccc(-c2ccccc2)cc1
-- reply rule not met

-- ask Is Activity at least 50%? Consider CCC[C@@H]1C[C@@]1(CCC)[C@@H](NP(=O)(c1ccccc1)c1ccccc1)c1ccc(Cl)cc1
-- reply rule not met

-- ask Is Activity at least 50%? Consider CCC/C=C(\CCC)[C@@H](NS(=O)(=O)c1ccccc1Cl)c1ccc(C(=O)OC)cc1
-- reply rule met

-- ask Is Activity at least 50%? Consider CCC/C=C(\CCC)[C@@H](NS(=O)(=O)c1ccc(-c2ccccc2)cc1)c1ccc(C(=O)OC)cc1
-- reply rule not met

-- ask Is Activity at least 50%? Consider CCCC[C@@H]1C[C@H]1[C@@H](NC(=O)c1cccnc1)c1ccc(-c2ccccc2)cc1
-- reply rule met
